- tgt: Fatty acid synthase (Homo sapiens)
- Sequence (P49327 whole entry): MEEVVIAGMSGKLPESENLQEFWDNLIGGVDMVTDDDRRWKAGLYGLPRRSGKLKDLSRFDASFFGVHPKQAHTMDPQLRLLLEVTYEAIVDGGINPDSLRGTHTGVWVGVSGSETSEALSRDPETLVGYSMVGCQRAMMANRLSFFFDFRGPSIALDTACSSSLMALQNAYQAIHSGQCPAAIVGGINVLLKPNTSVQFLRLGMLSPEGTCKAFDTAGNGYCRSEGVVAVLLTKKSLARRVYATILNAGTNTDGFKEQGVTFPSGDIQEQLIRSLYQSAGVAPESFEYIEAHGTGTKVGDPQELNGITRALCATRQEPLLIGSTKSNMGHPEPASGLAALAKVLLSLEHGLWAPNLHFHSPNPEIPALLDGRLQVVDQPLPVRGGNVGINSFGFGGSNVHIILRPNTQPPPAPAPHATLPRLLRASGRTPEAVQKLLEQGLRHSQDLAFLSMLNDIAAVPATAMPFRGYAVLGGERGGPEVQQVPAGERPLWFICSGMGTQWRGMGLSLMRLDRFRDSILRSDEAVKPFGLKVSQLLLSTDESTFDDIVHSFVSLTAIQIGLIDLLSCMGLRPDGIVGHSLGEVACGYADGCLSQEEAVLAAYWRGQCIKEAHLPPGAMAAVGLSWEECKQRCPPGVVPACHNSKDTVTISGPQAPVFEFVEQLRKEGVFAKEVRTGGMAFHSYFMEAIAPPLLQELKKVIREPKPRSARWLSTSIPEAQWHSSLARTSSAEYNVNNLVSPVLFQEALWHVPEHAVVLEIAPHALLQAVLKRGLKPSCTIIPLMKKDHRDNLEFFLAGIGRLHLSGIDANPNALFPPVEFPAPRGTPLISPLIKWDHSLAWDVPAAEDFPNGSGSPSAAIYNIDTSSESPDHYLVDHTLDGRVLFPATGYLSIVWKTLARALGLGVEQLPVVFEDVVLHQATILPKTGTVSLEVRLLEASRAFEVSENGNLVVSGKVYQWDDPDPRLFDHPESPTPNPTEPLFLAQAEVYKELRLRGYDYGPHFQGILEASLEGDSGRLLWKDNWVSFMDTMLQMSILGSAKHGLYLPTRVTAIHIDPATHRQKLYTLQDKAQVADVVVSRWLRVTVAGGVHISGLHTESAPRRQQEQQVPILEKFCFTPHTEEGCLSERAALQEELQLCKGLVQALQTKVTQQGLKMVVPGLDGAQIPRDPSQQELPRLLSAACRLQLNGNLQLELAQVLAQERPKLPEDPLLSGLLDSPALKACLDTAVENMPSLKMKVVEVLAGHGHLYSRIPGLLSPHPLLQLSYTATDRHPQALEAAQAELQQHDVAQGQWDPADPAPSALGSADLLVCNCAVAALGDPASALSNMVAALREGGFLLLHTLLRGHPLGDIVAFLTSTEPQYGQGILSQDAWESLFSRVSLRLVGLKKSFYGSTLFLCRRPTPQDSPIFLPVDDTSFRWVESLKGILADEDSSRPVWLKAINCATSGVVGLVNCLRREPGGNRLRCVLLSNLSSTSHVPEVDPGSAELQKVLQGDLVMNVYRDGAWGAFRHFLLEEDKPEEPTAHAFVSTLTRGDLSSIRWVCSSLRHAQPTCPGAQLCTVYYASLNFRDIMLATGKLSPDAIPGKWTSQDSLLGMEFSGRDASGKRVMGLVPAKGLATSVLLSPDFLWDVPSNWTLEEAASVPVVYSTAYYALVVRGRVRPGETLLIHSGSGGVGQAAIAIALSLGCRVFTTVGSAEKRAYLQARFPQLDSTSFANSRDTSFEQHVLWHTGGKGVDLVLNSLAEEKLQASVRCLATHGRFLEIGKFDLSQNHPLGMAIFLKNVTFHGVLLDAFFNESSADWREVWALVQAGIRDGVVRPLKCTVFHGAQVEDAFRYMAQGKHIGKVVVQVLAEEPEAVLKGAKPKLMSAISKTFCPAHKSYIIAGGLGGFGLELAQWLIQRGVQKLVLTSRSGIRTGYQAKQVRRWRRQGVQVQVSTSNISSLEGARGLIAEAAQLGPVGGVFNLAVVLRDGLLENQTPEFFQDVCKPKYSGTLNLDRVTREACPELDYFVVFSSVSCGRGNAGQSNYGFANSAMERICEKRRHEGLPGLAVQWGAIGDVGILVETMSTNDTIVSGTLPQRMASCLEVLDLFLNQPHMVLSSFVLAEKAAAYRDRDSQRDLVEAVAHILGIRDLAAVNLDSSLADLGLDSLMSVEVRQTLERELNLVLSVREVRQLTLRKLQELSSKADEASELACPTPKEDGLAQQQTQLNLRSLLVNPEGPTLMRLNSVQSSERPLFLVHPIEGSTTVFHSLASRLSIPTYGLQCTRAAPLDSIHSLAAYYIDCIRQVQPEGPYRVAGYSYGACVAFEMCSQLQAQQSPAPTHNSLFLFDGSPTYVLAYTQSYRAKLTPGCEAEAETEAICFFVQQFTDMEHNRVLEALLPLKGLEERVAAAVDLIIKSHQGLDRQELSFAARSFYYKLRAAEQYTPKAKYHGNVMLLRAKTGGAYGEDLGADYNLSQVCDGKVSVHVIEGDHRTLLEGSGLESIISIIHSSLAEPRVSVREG
- method.description: inhibition of human FAS-TE enzyme activity – biochemical, endpoint fluorescence intensity, uHTS hits, dose response (AID 624327);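 note: fluorescence from hydrolysis of an O-methyl fluorescein acyl ester substrate by the enzyme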
- Type: functional
Calls of active or inactive are those of the source.
Item-by-item account of IC50

In plain terms, CC(C)COc1ccc(C(=O)N/C(=C\c2cccc([N+](=O)[O-])c2)C(=O)O)cc1 has a documented IC50 of 8.63 µM (active)

In plain terms, C/C(=N\Nc1nc(N2CCOCC2)nc(N2CCOCC2)n1)c1ccc([N+](=O)[O-])cc1 has a documented IC50 of 14.5 µM (active)

In plain terms, CC(C)(C)c1ccc(C(=O)OCCNC(=O)c2c(Cl)nc3ccccn23)cc1 has a documented IC50 of 5.51 µM (active)

In plain terms, Cc1nc2c(OCc3ccc(Cl)cc3Cl)cccn2c1N(C)CC1CC1 has a documented IC50 of 12.7 µM (active)

In plain terms, Cc1cccc(NS(=O)(=O)c2ccc3[nH]c(=O)cc(C(=O)OC(C)C(=O)Nc4ccc([N+](=O)[O-])cc4)c3c2)c1 (stereo not given) has a documented IC50 of 1.51 µM (active)

====

- tgt: DNA dC->dU-editing enzyme APOBEC-3G (Homo sapiens, UniProt Q9HC16)
- Sequence (Q9HC16 whole entry): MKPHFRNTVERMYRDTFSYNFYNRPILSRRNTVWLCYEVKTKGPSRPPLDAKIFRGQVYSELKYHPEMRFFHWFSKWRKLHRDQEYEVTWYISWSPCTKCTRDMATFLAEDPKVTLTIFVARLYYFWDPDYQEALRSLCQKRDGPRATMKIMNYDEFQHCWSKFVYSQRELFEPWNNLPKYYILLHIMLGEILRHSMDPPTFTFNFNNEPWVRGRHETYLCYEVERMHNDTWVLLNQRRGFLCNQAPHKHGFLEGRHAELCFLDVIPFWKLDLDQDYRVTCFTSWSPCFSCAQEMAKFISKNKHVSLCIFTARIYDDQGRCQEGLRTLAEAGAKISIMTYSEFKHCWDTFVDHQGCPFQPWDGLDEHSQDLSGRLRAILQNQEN
- method.description: Dose Response confirmation of small molecule APOBEC3G DNA Deaminase Inhibitors via a fluorescence-based single-stranded DNA deaminase assay. [Related pubchem assays (depositor defined):AID493012, AID493028]
- Type: functional
The source made the active and inactive calls.
Item-by-item account of IC50

Some molecules with recorded IC50:
COc1ccc(CC(=S)N2CCOCC2)cc1 :: 46.1 µM (active)
COc1ccc(/C=N/n2c(S)nnc2-c2cc(C)[nH]n2)cc1OC :: 8.3 µM (active)
COc1ccc(/C=N/n2c(S)nnc2-c2[nH]nc3c2CCC3)c(OC)c1OC :: 4.64 µM (active)
O=C(O)C1CC(c2ccc(F)cc2)=NO1 (stereo not drawn) :: 10.9 µM (active)
Sc1nnc(C2CCCCC2)n1/N=C/c1ccccn1 :: 2.23 µM (active)
Cn1c(=O)c2ccccc2n2c(S)nnc12 :: 3.8 µM (active)
O=c1c2cc(F)ccc2sn1-c1ccc(F)cc1 :: 15.5 µM (active)

In plain terms, Nn1c(C2COc3ccccc3O2)n[nH]c1=S (stereo not drawn) has a documented IC50 of 5.09 µM (active)

====

Item-by-item account of AC50
- tgt: Cytochrome P450 2C19 (Homo sapiens, UniProt P33261)
- Sequence (P33261 whole entry): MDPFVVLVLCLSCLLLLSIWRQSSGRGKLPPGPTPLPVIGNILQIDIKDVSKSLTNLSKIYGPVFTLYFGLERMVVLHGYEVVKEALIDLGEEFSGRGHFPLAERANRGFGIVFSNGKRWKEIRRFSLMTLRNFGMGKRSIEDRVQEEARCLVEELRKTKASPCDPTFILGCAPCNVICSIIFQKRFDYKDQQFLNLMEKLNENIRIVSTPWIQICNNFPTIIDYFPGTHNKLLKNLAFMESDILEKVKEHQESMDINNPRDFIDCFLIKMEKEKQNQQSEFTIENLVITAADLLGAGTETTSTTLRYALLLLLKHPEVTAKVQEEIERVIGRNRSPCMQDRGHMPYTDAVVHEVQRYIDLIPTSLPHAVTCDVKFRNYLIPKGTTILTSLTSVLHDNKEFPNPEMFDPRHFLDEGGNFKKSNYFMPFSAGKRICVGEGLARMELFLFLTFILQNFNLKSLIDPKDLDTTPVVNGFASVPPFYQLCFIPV
- method.description: Cytochrome panel assay with activity outcomes. Panel member name: p450-cyp2c19 Compounds with AC50 equal or less than 10 uM are considered active
- Format: functional
- experimental.setup: read-out: AC50

Cc1cc(=O)[nH]c2ccccc12 :: 20 µM (inconclusive)

In plain terms, Cc1cc2c(cc1C)NC(c1nc3ccccc3[nH]1)C1=C(O)CC(C)(C)CC1=N2 (stereo unspecified) has a documented AC50 of 1.78 µM (inconclusive)

In plain terms, Cc1oc(=O)c(NC(=O)c2ccccc2)cc1C(=O)c1ccccc1 has a documented AC50 of 8.91 µM (inconclusive)

====

- tgt: Voltage-dependent T-type calcium channel subunit alpha-1H (Homo sapiens)
- Assay type: functional
Active and inactive are the calls of the source.
readout: EC50

Some compounds with recorded EC50:
Cc1cc(NC(=O)CSc2cn(CCNC(=O)c3ccc(Cl)cc3)c3ccccc23)no1 :: 0.13 µM (active)
COc1cccc(CNC(=O)C2CCN(Cc3cnn(-c4ccccc4)c3-n3cccc3)CC2)c1 :: 9.81 µM (active)

Next up:
In plain terms, CC/N=c1\sc2ccccc2n1CC(O)COc1ccccc1 (stereo not drawn) has a documented EC50 of 29.1 µM (active)

====

- Test system: INS1
- method.description: INS-1E survival protection against cytokine death – cell-based, luminescence, retest, dose response (AID 449756);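 note: cell death triggered by IL-1 beta plus TNF-alpha plus IFN-gamma mixture; protective hits raise ATP signal compared with cytokine alone wells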
- Assay type: functional
- experimental.setup: Rattus norvegicus
Active and inactive are the calls of the source.
Item-by-item account of AC50

Some compounds with recorded AC50:
O=C(N/N=C/c1cc(Cl)ccc1O)c1ccc(Br)cc1 :: 0.773 µM (active)
Cc1cc(C)cc(NC(=O)/C(C#N)=C/c2cn(CC(=O)NCc3ccco3)c3ccccc23)c1 :: 3.92 µM (active)
COC(=O)c1c(C)oc2ccc(N(C(=O)c3ccncc3)S(=O)(=O)c3ccc4ccccc4c3)cc12 :: 12.9 µM (active)
CCOC(=O)CC1CCCCN1C(=O)c1cc(COc2cccc3cnccc23)on1 (stereo unspecified) :: 5.89 µM (active)
Cc1cc(C)c2sc(NNC(=O)c3ccc(S(=O)(=O)N4CCc5ccccc5C4)cc3)nc2c1 :: 1.36 µM (active)

In plain terms, [O-][Cl+3]([O-])([O-])[O-].c1ccc(-c2cc(-c3ccccc3)[n+](-c3ccccc3)c(-c3ccccc3)c2)cc1 has a documented AC50 of 2.59 µM (active)

====

Entries with reported AC50 on Cytochrome P450 1A2 (Homo sapiens)
Sequence (P05177 whole entry): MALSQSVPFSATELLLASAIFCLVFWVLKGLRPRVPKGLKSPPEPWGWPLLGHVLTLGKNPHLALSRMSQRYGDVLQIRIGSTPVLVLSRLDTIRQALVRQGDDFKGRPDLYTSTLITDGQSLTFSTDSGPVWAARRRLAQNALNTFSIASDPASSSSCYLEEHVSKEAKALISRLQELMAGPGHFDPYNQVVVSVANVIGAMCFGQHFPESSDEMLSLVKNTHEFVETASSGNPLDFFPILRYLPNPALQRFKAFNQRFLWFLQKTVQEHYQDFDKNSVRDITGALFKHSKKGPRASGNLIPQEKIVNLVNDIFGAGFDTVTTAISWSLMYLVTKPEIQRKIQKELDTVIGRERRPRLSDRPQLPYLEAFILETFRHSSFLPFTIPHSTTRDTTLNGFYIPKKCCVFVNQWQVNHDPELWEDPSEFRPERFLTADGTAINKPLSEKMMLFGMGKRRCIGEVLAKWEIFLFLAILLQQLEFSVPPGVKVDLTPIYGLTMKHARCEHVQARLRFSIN

Simply: C[C@@H](C(=O)NCc1ccccn1)[C@H]1C[C@]1(C)[C@H](NC(=O)OCc1ccccc1)c1ccccc1 , Cytochrome P450 1A2 (Homo sapiens), AC50 = 25.1 µM (inconclusive)

Simply: Cn1nnnc1SCc1ccccc1[N+](=O)[O-] , Cytochrome P450 1A2 (Homo sapiens), AC50 = 15.8 µM (inconclusive)

Simply: Cc1ccc(Cn2nnc3c(O)nc(C4CCN(C(=O)Cc5cccs5)CC4)nc32)cc1 , Cytochrome P450 1A2 (Homo sapiens), AC50 = 31.6 µM (inconclusive)

====

- tgt: Luciferin 4-monooxygenase (Photinus pyralis)
- Sequence (P08659 whole entry): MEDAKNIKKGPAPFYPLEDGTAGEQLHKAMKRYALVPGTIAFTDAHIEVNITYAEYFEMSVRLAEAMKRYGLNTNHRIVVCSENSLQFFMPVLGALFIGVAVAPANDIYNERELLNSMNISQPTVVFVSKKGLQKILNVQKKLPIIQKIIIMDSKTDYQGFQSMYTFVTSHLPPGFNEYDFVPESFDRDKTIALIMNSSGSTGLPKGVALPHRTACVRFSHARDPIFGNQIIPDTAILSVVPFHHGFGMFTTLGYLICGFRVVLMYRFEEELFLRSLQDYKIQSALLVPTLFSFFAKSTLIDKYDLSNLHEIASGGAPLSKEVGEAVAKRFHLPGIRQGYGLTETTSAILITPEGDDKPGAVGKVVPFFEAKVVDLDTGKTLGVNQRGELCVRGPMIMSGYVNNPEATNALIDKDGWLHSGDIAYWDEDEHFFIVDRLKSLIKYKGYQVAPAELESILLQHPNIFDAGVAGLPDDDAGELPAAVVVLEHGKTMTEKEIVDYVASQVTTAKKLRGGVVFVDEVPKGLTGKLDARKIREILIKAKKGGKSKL
- method.description: inhibition of purified Photinus pyralis luciferase – biochemical, luminescence, dose response (AID 1891)
The source made the active and inactive calls.
Item-by-item account of EC50

COc1ccc(P(=O)(COc2ccc([N+](=O)[O-])cc2)c2ccc(OC)cc2)cc1 :: > 112 µM (not active)
COCc1nnc(NC(=O)CSCc2ccccc2)s1 :: > 112 µM (not active)
CCOC(=O)c1c(O)nc2ccccc2c1N1CCCCC1 :: > 112 µM (not active)
Cc1ccc(C(=O)O/N=C(\N)c2ccccn2)c(Cl)c1 :: 0.782 µM (active)

In plain terms, Cc1ccc(-c2noc(-c3cccs3)n2)cc1 has a documented EC50 of 3.98 µM (active)

====

- tgt: Replicative DNA helicase DnaB (Mycobacterium tuberculosis, UniProt P9WMR3)
- Sequence (P9WMR3 whole entry): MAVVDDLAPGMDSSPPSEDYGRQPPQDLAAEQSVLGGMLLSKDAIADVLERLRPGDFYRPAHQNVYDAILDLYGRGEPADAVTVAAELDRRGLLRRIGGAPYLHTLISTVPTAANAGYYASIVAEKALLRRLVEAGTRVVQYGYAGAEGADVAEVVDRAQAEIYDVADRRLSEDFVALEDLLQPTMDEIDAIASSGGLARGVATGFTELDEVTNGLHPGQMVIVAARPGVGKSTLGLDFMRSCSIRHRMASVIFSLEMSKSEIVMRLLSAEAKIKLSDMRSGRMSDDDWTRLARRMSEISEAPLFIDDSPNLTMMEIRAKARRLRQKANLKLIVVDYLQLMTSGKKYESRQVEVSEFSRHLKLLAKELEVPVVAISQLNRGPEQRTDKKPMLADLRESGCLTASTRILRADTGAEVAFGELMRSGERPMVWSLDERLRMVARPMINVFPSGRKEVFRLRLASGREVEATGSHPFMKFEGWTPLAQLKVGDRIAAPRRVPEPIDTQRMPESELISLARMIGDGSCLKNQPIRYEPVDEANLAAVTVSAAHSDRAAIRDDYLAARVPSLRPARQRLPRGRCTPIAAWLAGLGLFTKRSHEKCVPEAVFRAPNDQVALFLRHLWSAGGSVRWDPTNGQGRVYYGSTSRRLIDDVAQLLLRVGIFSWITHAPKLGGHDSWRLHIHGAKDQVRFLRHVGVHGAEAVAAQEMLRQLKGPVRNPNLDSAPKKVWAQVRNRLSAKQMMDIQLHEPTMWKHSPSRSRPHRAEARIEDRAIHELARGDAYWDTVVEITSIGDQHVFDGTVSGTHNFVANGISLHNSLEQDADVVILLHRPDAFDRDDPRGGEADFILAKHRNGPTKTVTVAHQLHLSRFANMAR
- method.description: DnaB intein splicing inhibitors, dose response, biochemical, cell-free fluorescence (AID 449749)
- Format: functional
Activity calls are given as the source filed them.
Pick from active, inactive when you respond.

-- ask Give the logged outcome of this assay for the following compound: CCCCn1[nH]c(-c2ccccc2)cc1=O
-- reply active

-- ask Give the logged outcome of this assay for the following compound: C=C[S+]([O-])c1sc(Cl)c(N2CCOCC2)c1[N+](=O)[O-] (centres undefined)
-- reply active

-- ask Give the logged outcome of this assay for the following compound: O=S(=O)(Nc1c(O)ccc2ccccc12)c1ccccc1
-- reply active

-- ask Give the logged outcome of this assay for the following compound: Cc1nc2ccccc2c2c1C(=O)NC2=O
-- reply active

-- ask Give the logged outcome of this assay for the following compound: CCOC(=O)C(CC)Sc1ncnc2c1nnn2-c1ccc(F)cc1 (centres undefined)
-- reply active

-- ask Give the logged outcome of this assay for the following compound: O=C1C(Cl)=C(N2CCOCC2)C(=O)N1c1ccccc1F
-- reply active

-- ask Give the logged outcome of this assay for the following compound: Cc1nn(-c2ccccc2)c(Cl)c1/C=C1\SC(=S)N(CCCCCC(=O)O)C1=O
-- reply active

-- ask Give the logged outcome of this assay for the following compound: COc1cc(Cc2nccc3cc(OC)c(OC)cc23)c(S(=O)(=O)O)cc1OC
-- reply active

-- ask Give the logged outcome of this assay for the following compound: CC1Nc2ncnc(N3CCc4ccccc4C3)c2N(Cc2ccc(Br)cc2)C1=O (centres undefined)
-- reply inactive
